# method.summary: antimalarial activity against Dd2 strain (AID 2302);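 further: 0% = DMSO untreated growth and 100% = chloroquine plus artemisinin killed control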
# condition.label: P. falciparum Dd2 in RBCs, LDH growth readout, 72 h; at 2 µM
Calls of active or inactive are those of the source.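 How the source made its calls: active means growth inhibition above 50% at the single 2 µM test dose, taken to imply half-maximal potency below 2 µM; inactive means the rest.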
Result category, one only: 1 (yes) (active), 0 (no) (inactive)

Which outcome did this test record for the molecule COc1cc(CCNc2nc(NCc3cccc4ccccc34)nc(N3CCC(N)CC3)n2)ccc1O ?
1 (yes)

Which outcome did this test record for the molecule CC(C)COc1ccc(C(O)C(CN2CCCCC2)c2ccccc2)cc1 (centres undefined) ?
1 (yes)

Which outcome did this test record for the molecule CSC1=NC(=Nc2ccccc2C)C2(CCC(C(C)(C)C)CC2)N1c1ccccc1Cl (centres undefined) ?
1 (yes)

Which outcome did this test record for the molecule c1ccc(-c2nc(Nc3ccncc3)sc2-c2ccccc2)cc1 ?
0 (no)

Which outcome did this test record for the molecule O=C(NCCCCN1CCC(c2ccc3c(c2OCc2ccncc2)CCCC3)CC1)c1ccc(-c2ccc(C(F)(F)F)cc2)cc1 ?
1 (yes)

Which outcome did this test record for the molecule CN(CCC1CCN(C(=O)/C=C/c2ccc(Cl)c(Cl)c2)CC1)C1CCC(c2c[nH]c3ccccc23)CC1 (centres undefined) ?
0 (no)

Which outcome did this test record for the molecule COc1ccc2ncc(F)c(CCN3[C@@H]4CC[C@H]3CC(NCc3cc5c(cn3)OCS5)C4)c2n1 (some centres undefined) ?
0 (no)

Which outcome did this test record for the molecule O=C(Cn1nc(Br)nc1[N+](=O)[O-])NCC1CCCCC1 ?
1 (yes)

Which outcome did this test record for the molecule O=C(Nc1ccc(-c2cccc(-c3nc4ccc(F)cc4[nH]3)c2)cc1)Nc1ccc(Cl)c(Cl)c1 ?
0 (no)

Which outcome did this test record for the molecule COc1ccc(Oc2ccccc2CNCC2CCN(CC3CCCCC3)CC2)cc1 ?
0 (no)

Which outcome did this test record for the molecule CC(=O)Nc1ccc(NC(=O)c2cc(-c3ccc(C)cc3O)n[nH]2)cc1 ?
1 (yes)

Which outcome did this test record for the molecule COc1cc(OCCCN(C)Cc2ccc(OC)c(OC)c2)ccc1NC(=O)c1cccc2c(=O)c3cccc(F)c3[nH]c12 ?
1 (yes)

Which outcome did this test record for the molecule O=C(CCc1cnc[nH]1)Nc1cccc(-c2ccc(-c3nc4ccc(F)cc4[nH]3)s2)c1 ?
1 (yes)

Which outcome did this test record for the molecule O=C(NCc1ccc(Cl)cc1)c1ccc(C(=O)NCC2CCCN2CC2CCCCC2)cc1 (centres undefined) ?
0 (no)

Which outcome did this test record for the molecule Cc1cnc(NC(=O)c2cn(-c3ccccc3)nc2-c2cccs2)s1 ?
0 (no)

Which outcome did this test record for the molecule NS(=O)(=O)NCCCN1CCN(c2ccccc2)CC1 ?
1 (yes)

Which outcome did this test record for the molecule CC(C)(C)C1CCC(C(=O)c2ccc3ccccc3c2O)CC1 (centres undefined) ?
1 (yes)

Which outcome did this test record for the molecule c1ccc2[nH]c(-c3ccc(-c4ccc(CN5CCN(CCN6CCOCC6)CC5)cc4)cc3)nc2c1 ?
1 (yes)

Which outcome did this test record for the molecule NC(N)=NC(=O)Nc1cc(Cl)c(Cl)c(Br)c1 ?
1 (yes)

Which outcome did this test record for the molecule CC(C)N1CCC(N(Cc2ccc(-c3ccc(Cl)cc3)cc2)C(=O)Cn2c(CCc3cccc(F)c3F)nc(=O)c3ccccc32)CC1 ?
1 (yes)

Which outcome did this test record for the molecule COc1cc(CNC(=S)NN=C(C)c2ccccn2)cc(OC)c1OC ?
1 (yes)

Which outcome did this test record for the molecule Cc1cccc(CNc2nc(C)cc(NCCC(=O)Nc3ccccc3)n2)c1 ?
1 (yes)

Which outcome did this test record for the molecule O=C(COc1cnc2ccccc2n1)Nc1ccccc1Sc1ccc(Cl)cc1 ?
1 (yes)

Which outcome did this test record for the molecule O=C(NCC1CCN(C/C=C/c2ccccc2)CC1)Nc1ccc(Oc2ccccc2)cc1 ?
0 (no)

Which outcome did this test record for the molecule CCC(N)(C#Cc1ccc(-c2c(C)[nH]c(C)c(Br)c2=O)cc1)CC ?
1 (yes)

Which outcome did this test record for the molecule O=C(NC1CCN(Cc2cccc(C(F)(F)F)c2)CC1)c1ccc(-c2cccc(C(F)(F)F)c2)s1 ?
1 (yes)

Which outcome did this test record for the molecule COc1ccc(NC(=O)Nc2cc(C)nc3ccccc23)cc1Cl ?
0 (no)

Which outcome did this test record for the molecule COc1ccc2nccc(N3CCC(SCCNS(=O)(=O)c4ccc5c(c4)NC(=O)CS5)C3)c2n1 (centres undefined) ?
0 (no)

Which outcome did this test record for the molecule C=CC[C@@H](C(=O)OCC)[C@@H]1[C@@H](N(CC=C)C(=O)OC(C)(C)C)CCN1C(=O)OCc1ccccc1 ?
1 (yes)
